Tested on: Citrobacter amalonaticus
Assay: Antibacterial activity against Citrobacter amalonaticus isolate Ca38009 harboring IncL/M plasmid and blaIMP-4-qacG2-aacA4-catB3 array by Etest method
Type: functional
Property: MIC; scope: individual molecules

Some molecules with recorded MIC:
MOLECULE | TEST VALUE
NC[C@H]1O[C@H](O[C@H]2[C@H](O)[C@@H](O[C@H]3O[C@H](CO)[C@@H](O)[C@H](N)[C@H]3O)[C@H](N)C[C@@H]2N)[C@H](N)C[C@@H]1O [TOBRAMYCIN] | > 8 µg/mL
O=C(O)c1cn(C2CC2)c2cc(N3CCNCC3)c(F)cc2c1=O [CIPROFLOXACIN] | ≤ 0.5 µg/mL
CO/N=C(\C(=O)N[C@@H]1C(=O)N2C(C(=O)O)=C(COC(C)=O)CS[C@H]12)c1csc(N)n1 [CEFOTAXIME] | > 32 µg/mL
C[C@@H](O)[C@H]1C(=O)N2C(C(=O)O)=C(SCCNC=N)C[C@H]12 [IMIPENEM ANHYDROUS] | 1.5 µg/mL

Would you kindly look at the next entry?
What MIC appears in the records for this molecule with Citrobacter amalonaticus? C[C@H]1[C@H](NC(=O)/C(=N\OC(C)(C)C(=O)O)c2csc(N)n2)C(=O)N1S(=O)(=O)O [AZTREONAM]
≤ 1 µg/mL

----------
Entries and their MIC values follow.
Test system: Klebsiella pneumoniae
Experiment: Antibacterial activity against Klebsiella pneumoniae isolate Kp4614
Assay type: functional

Example entries and their recorded answers appear below.
COMPOUND | TARGET OF ASSAY | MIC
C[C@@H](O)[C@H]1C(=O)N2C(C(=O)O)=C(SCCNC=N)C[C@H]12 [IMIPENEM ANHYDROUS] | Klebsiella pneumoniae | ≤ 1 µg/mL
NC[C@H]1O[C@H](O[C@H]2[C@H](O)[C@@H](O[C@H]3O[C@H](CO)[C@@H](O)[C@H](N)[C@H]3O)[C@H](N)C[C@@H]2N)[C@H](N)C[C@@H]1O | Klebsiella pneumoniae | 8 µg/mL
C[C@H]1[C@H](NC(=O)/C(=N\OC(C)(C)C(=O)O)c2csc(N)n2)C(=O)N1S(=O)(=O)O | Klebsiella pneumoniae | ≤ 1 µg/mL

# ---- query compound ----
Quick one: MIC of `CO/N=C(\C(=O)N[C@@H]1C(=O)N2C(C(=O)O)=C(COC(C)=O)CS[C@H]12)c1csc(N)n1` ?
> 32 µg/mL

----------
System: Klebsiella oxytoca
Assay: Antibacterial activity against Klebsiella oxytoca isolate Ko0426 harboring IncL/M plasmid and blaIMP-4-qacG2-aacA4-catB3 array by Etest method
Assay type: functional
OUTCOME MEASURE: MIC

Reported MIC, compound `C[C@H]1[C@H](NC(=O)/C(=N\OC(C)(C)C(=O)O)c2csc(N)n2)C(=O)N1S(=O)(=O)O` : ____
≤ 1 µg/mL

Similarly, `O=C(O)c1cn(C2CC2)c2cc(N3CCNCC3)c(F)cc2c1=O` ?
≤ 0.5 µg/mL

Same for `NC[C@H]1O[C@H](O[C@H]2[C@H](O)[C@@H](O[C@H]3O[C@H](CO)[C@@H](O)[C@H](N)[C@H]3O)[C@H](N)C[C@@H]2N)[C@H](N)C[C@@H]1O`
> 8 µg/mL

Hey, just so you know, these numbers are from ChEMBL document CHEMBL1671859.
